- Tested on: NCI-H23 lung
- Assay: NCI tumour cell line growth inhibition, 48 h
Reported Property: TGI (µM)
Kindly provide the numeric value in µM only, without the unit symbol.

Example entries begin here.
Molecule	Reported Property	Test Value
COC(=O)c1ccccc1NC(=O)C(=O)Cc1nc2c3c(ccc2[nH]c1=O)C(=O)c1ccccc1C3=O	TGI	47.2
C=CC(=O)Nc1cc(Nc2ncc(C(=O)OC(C)C)c(-c3cn(C)c4ccccc34)n2)c(OC)cc1N(C)CCN(C)C	TGI	25.3
NC(N)=N/N=C/c1c(-c2ccc(N)cc2)nc2sccn12	TGI	95.2

Turning to the following molecule.
Kindly note: NCI-H23 lung, OC1CSSC1Cn1cnc2c(Nc3ccc(OCc4cccc(F)c4)c(Cl)c3)ncnc21 (centres undefined) , TGI value reported: 1.73

----------
- Tested on: LOX IMVI melanoma
- Assay: NCI tumour cell line growth inhibition, 48 h
Reported Property: TGI

Compound	Target Entity	TGI
OCCN(CCO)c1ncnc2c1ncn2Cc1ccc(CCl)cc1	LOX IMVI melanoma	30.9 µM
CC(=O)O[C@@H]1[C@H](C(C)C)[C@@H](OC(C)=O)C/C(C)=C/CC[C@]2(C)O[C@@H]12	LOX IMVI melanoma	> 100 µM
CCOC(=O)c1cn2c(n1)sc1cccc(C)c12	LOX IMVI melanoma	> 100 µM
Cc1cc(N(CCC#N)CCC#N)ccc1N=Nc1ccc(S(N)(=O)=O)cc1	LOX IMVI melanoma	> 100 µM
CCCCCCCCCCCC(=O)OCCOCCOCCOCCOCCOCc1ccccc1	LOX IMVI melanoma	> 100 µM

Form field TGI, entry COc1cccc(C2c3cc4c(cc3OC(C)(N3CCCC3)C2C)OCO4)c1O (configuration not stated) : 19.2 µM

// recorded TGI for COC([CH2][Hg][n]1cnc2c1c(=O)n(C)c(=O)n2C)CN1C(=O)c2ccccc2S1(=O)=O (configuration not stated) : > 100 µM

response.value for `O=[N+]([O-])c1ccc2c(c1)c(OCc1ccccc1)nn2Cc1ccccc1` (field: TGI) = > 100 µM

GET /value?item= `CC(C)CCS(=O)(=O)OCCCCOS(=O)(=O)CCC(C)C` &field=TGI returns > 100 µM

Value of TGI reported for the compound `O=C1c2ccccc2-c2c1c1ccccc1c(=O)n2CCNCCNCCNCCn1c2c(c3ccccc3c1=O)C(=O)c1ccccc1-2` is 0.572 µM

Lab note: `Nn1c(-c2ccccc2)nn(C(=O)c2ccccc2)c1=O` gave TGI of > 100 µM

Notebook: C=C(C)C(=O)OC1C/C(CO)=C\C(O)C/C(C)=C/C2OC(=O)C(=C)C21 (configuration not stated) , TGI read as 35 µM

The value of TGI measured for the compound `CCN1/C(=C\c2cc[n+](CC)c3ccccc23)C=Cc2ccccc21` turned out to be 1.52 µM

Field TGI (entry `Fc1ccc(NC(=S)SCc2ccc3c(c2)OCO3)cc1F` ) reads 28.6 µM

Reported TGI of `N#Cc1c(N2CCCC2)ncn(-c2ccccc2)c1=O` : > 100 µM

The reported value for `Nc1ccccc1S(=O)(=O)N(CC(=O)O)c1ccccc1` in terms of TGI is > 100 µM

----------
- Tested on: NCI-H522 lung
- Assay: NCI tumour cell line growth inhibition, 48 h
We begin with a simple list: items and their reported TGI.

For orientation, consider the following solved cases.
Molecule	Reported Property	Test Value
O=C1/C(=C/c2ccc(O)c(O)c2)CCC/C1=C\c1ccc(O)c(O)c1	TGI	2.22 µM
O=C1CC(NC(=O)C(F)(F)F)c2c(Br)sc(N3CCNCC3)c21 (stereo not given)	TGI	> 100 µM
Cn1cc(C2=C(c3c4n(c5ccccc35)CCCCC4)C(=O)NC2=O)c2ccccc21	TGI	8.14 µM

// TGI lookup, molecule = `O=C1CCCSC(=O)N1Cc1ccccc1` , result: > 100 µM

Item: `CC1(C)C(=O)/C=C\C(=O)C(C)(C)C2=CC=C(O2)C(C)(C)C(=O)/C=C\C(=O)C(C)(C)C2=CC=C1O2` | TGI: > 100 µM
